Where do these numbers come from? They come from patent US10034879B2.

Assay: Pharmacokinetic I.V. study in rat
Type: in vivo, Sprague Dawley rats
Conditions: Sprague-Dawley, whole blood, 7.8 mg/kg, 7.8 mpk IV, Blood, read-out: t½ beta
Endpoint label: half-life

CC(C)n1nccc1-c1ncccc1COc1cccc(O)c1C=O [Compound 43] : 12.5 h

---

Experiment: Pharmacokinetic I.V. study in rat
Assay type: in vivo, Sprague Dawley rats
Conditions: Sprague-Dawley, plasma, iv, 7.8 mg/kg, 7.8 mpk IV, HCl salt, 5 min, animals A, B, C, read-out: plasma conc
Endpoint label: concentration at 5 min (µM)

CC(C)n1nccc1-c1ncccc1COc1cccc(O)c1C=O : 7.56

---

Assay: Pharmacokinetic I.V. study in rat
Assay type: in vivo, Sprague Dawley rats
Settings: Sprague-Dawley, plasma, iv, 7.8 mg/kg, 7.8 mpk IV, HCl salt, 480 min, animals A, B, C, read-out: plasma conc
Description: Sprague Dawley rats were treated with 7.8 mg/Kg of Compound 43 dissolved in 10% DMA:[…]:16% ca vitron. At specified time points 10 uL of whole blood/plasma was removed from rats and treated with 490 ul pH 3 buffer+500 uL ACN/IS, then shaken for 1 hour, centrifuged for 10 minutes at […] at 4 C. The supernatant was transferred to a filter plate and centrifuged at 2000 rpm for 1 minute at 4 C. The samples were then analyzed by LC-MS/MS monitoring parent aldehyde.
Endpoint label: concentration at 480 min (nM)

CC(C)n1nccc1-c1ncccc1COc1cccc(O)c1C=O : 2060
